From: ChEMBL document CHEMBL5096211

Target: Multidrug resistance protein HmrM (Haemophilus influenzae)
Test: Inhibition of Haemophilus influenza HmrM transporter expressed in Escherichia coli KAM32 assessed as inhibition of bacterial resistance to norfloxacin by measuring reduction in bacterial growth at 100 uM incubated for 18 hrs by microbroth dilution method
Readout name: Efficacy (%)

1) N=C(N)NCCSCc1cccc(F)c1	33
2) NCCSCc1cccc(F)c1	50
3) CN/C(=N\C#N)NCCSCc1cc(F)cc(F)c1	50
